system: NCI-H522 lung; experiment: NCI tumour cell line growth inhibition, 48 h; in the data active means GI50 below about 0.43 µM; inactive means the rest
The categories you may choose from are y = active, n = inactive

Use the examples below as a reference point.
O=c1oc2ccc(F)cc2c(=O)n1-c1ccc(Br)cc1F :: y
CCC(=O)c1cc([N+](=O)[O-])c(Br)s1 :: n
COc1ccc(-c2cc(/C=C/C(=O)c3cc(OC)c(OC)c(OC)c3)[nH]n2)cc1OC :: n

**Q:** Record lookup: outcome of this test for CCN(CC)CCOc1ccc(/C=C2\CC3C4CC=C5C[C@@H](OC(C)=O)CC[C@]5(C)C4CC[C@]3(C)C2=O)cc1OC (stereo partly drawn) ?
**A:** n

**Q:** Record lookup: outcome of this test for O=C(Nc1cc(S(=O)(=O)c2ccc(Cl)cc2)ccc1Cl)c1cc(I)cc(I)c1O ?
**A:** n

**Q:** Record lookup: outcome of this test for Cn1cnc([N+](=O)[O-])c1Sc1nc(N)nc2nc[nH]c12 ?
**A:** n

**Q:** Record lookup: outcome of this test for CC(C)(CO)N=Cc1ccccc1[O-].CC(C)(CO)N=Cc1ccccc1[O-].[Co+2] ?
**A:** n

**Q:** Record lookup: outcome of this test for CN(C)CCCC1(c2ccc(F)cc2)OCc2cc(-c3cncc4ccccc34)ccc21 (stereo not drawn) ?
**A:** n
